Source of measurements: paper PMC8093215

Experimental Target: hDNMT1 BAH1 domain D768A (human, UniProt P26358 728-900, D768A)
Sequence (P26358 728-900 D768A): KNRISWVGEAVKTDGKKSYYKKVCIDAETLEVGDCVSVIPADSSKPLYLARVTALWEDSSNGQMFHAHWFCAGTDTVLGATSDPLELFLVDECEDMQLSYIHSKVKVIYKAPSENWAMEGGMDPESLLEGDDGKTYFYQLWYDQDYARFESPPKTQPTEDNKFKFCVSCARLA
Assay Procedure: ITC
Experimental Readout: Kd
Returns: string containing the numeric result and its unit.

Find the recorded Kd belonging to GAKRHRKVLRDNY (trimethyl-lysine at K20) [H4(14–25)K20me3 peptide] and report it.
10 µM
